Assay: Permeability across apical to basolateral side in human Caco2 cells at 50 uM after 120 mins by LC/MS analysis
Type: ADME, cell-based
Conditions: Caco-2, read-out: permeability
Task for the reader: assign each of the following molecules its reported Papp A→B at 2 h, 50 µM.
The answer is to be given in ×10⁻⁶ cm/s; state only the numeric part.

Enquiry: Would you kindly share the measured Papp A→B at 2 h, 50 µM for OCCNc1nonc1/C(=N/O)Nc1ccc(F)c(Br)c1 ?
Return: 31

Enquiry: Record: NCCNc1nonc1/C(=N/O)Nc1ccc(F)c(Br)c1
Return: 1.8

Enquiry: Record: COCCNc1nonc1/C(=N/O)Nc1ccc(F)c(Br)c1
Return: 44

Enquiry: Record: CS(=O)(=O)NCCNc1nonc1C(=NO)Nc1ccc(F)c(Br)c1
Return: 24

Enquiry: Record: NS(=O)(=O)NCCNc1nonc1C(=NO)Nc1ccc(F)c(Cl)c1
Return: 4.3

Enquiry: Record: CC(=O)NCCNc1nonc1/C(=N/O)Nc1ccc(F)c(Br)c1
Return: 19
